Where do the numbers come from? From PubChem BioAssay (NCI).

tested on: SF-268 CNS; assay: NCI tumour cell line growth inhibition, 48 h
So I've got a bunch of compounds here, and I need their TGI values.

[in] Indicate the recorded TGI value for this compound: `CC(C)C(=O)CP(=O)(O)O`
[out] > 100 µM

[in] Indicate the recorded TGI value for this compound: `NCCNc1ncnc2ccc(Cl)cc12`
[out] > 100 µM

[in] Indicate the recorded TGI value for this compound: Cc1cn(C2CC(O)C(Cn3nncc3Cn3ccc(=O)[nH]c3=O)O2)c(=O)[nH]c1=O (configuration not stated)
[out] > 100 µM

[in] Indicate the recorded TGI value for this compound: `Cc1cc(C)nc(NS(=O)(=O)c2ccc(NC(=O)c3ccc4nc5ccccc5c(Nc5ccc(S(=O)(=O)Nc6nc(C)cc(C)n6)cc5)c4c3)cc2)n1`
[out] > 100 µM

[in] Indicate the recorded TGI value for this compound: CC(C)CC1NC(=O)C(C(C)C)NC(=O)CC(C)COC(=O)C(CC(C)C)N(C)C(=O)C(C(C)C)NC(=O)C(C(C)C)OC1=O (configuration not stated)
[out] > 50 µM

[in] Indicate the recorded TGI value for this compound: `Cc1ccc(C)c(C(=N)c2ccccc2Cc2ccccc2)c1`
[out] 46.2 µM

[in] Indicate the recorded TGI value for this compound: `COc1cc(OC)cc(Oc2nc3c(N)cc(C(F)(F)F)cc3nc2-c2ccccc2)c1`
[out] > 100 µM

[in] Indicate the recorded TGI value for this compound: O=C1OC(=O)C2C1C1C(c3ccccc3)=C(c3ccccc3)C2(O)C2C(=O)OC(=O)C12 (configuration not stated)
[out] > 100 µM

[in] Indicate the recorded TGI value for this compound: `Nc1nc(N)c(-c2ccc(Cl)cc2)c(/C=C/c2ccc([N+](=O)[O-])cc2)n1`
[out] 93.9 µM

[in] Indicate the recorded TGI value for this compound: `NC(N)=N/N=C/c1ccc(Br)cc1`
[out] 38.2 µM

[in] Indicate the recorded TGI value for this compound: O=C1CC2OCC=C3CN4CCC56c7ccccc7N1C5C2C3CC46 (configuration not stated) (tested in a mixture with another compound)
[out] > 50 µg/mL

[in] Indicate the recorded TGI value for this compound: `NC1=CN(Cc2ccccc2)C2=N/C(=C\c3ccco3)C(=O)N12`
[out] > 100 µM

----------
So I've got a bunch of molecules here, and I need their TGI values.
tested on: HCC-2998 colon; assay: NCI tumour cell line growth inhibition, 48 h

[in] Indicate the recorded TGI value for this molecule: `Cc1ccc2c(c1)C/C(=C\c1ccccc1C(=O)O)C2=O`
[out] > 100 µM

[in] Indicate the recorded TGI value for this molecule: `O=C(N/N=C/c1cccc(O)c1)c1ccc(C(F)(F)F)nc1Nc1cccc(C(F)(F)F)c1`
[out] 3.42 µM

[in] Indicate the recorded TGI value for this molecule: CCc1cccc(CC)c1NC(=O)C1=CNC(C)=C(C(=O)Nc2c(CC)cccc2CC)C1c1ccc(O)c(OC)c1 (configuration not stated)
[out] 88.8 µM

[in] Indicate the recorded TGI value for this molecule: `COc1ccc2c(c1)NC(=O)CN2c1nc(C)nc2ccccc12`
[out] 34.2 µM

[in] Indicate the recorded TGI value for this molecule: COC1=CC(=O)C2C(C1=O)[C@@H]1c3ccccc3OC[C@H]21 (some centres not stated)
[out] > 100 µM

[in] Indicate the recorded TGI value for this molecule: `NC1=CN(Cc2ccccc2)C2=N/C(=C\c3ccco3)C(=O)N12`
[out] > 100 µM

[in] Indicate the recorded TGI value for this molecule: `COc1cc(OC)cc(Oc2nc3c(N)cc(C(F)(F)F)cc3nc2-c2ccccc2)c1`
[out] > 100 µM

[in] Indicate the recorded TGI value for this molecule: CN1C(=O)C(O)C[C@@H]1c1ccc(F)cc1 (some centres not stated)
[out] > 100 µM

[in] Indicate the recorded TGI value for this molecule: `NC(N)=NC(N)=NCc1ccco1`
[out] > 1250 µM

[in] Indicate the recorded TGI value for this molecule: O=C(CC(C(=O)c1cccs1)c1ccccc1)c1ccccc1O (configuration not stated)
[out] > 100 µM

[in] Indicate the recorded TGI value for this molecule: CC1CC2(C)CC(=O)C1C1C(=O)N(CCN3CCOCC3)C(=O)C12 (configuration not stated)
[out] > 100 µM

[in] Indicate the recorded TGI value for this molecule: `Nc1c(O)c(C(=O)O)cc2ccccc12`
[out] > 100 µM

[in] Indicate the recorded TGI value for this molecule: `COc1cccc(-c2cc(=O)c3cc(N4CCCC4)ccc3[nH]2)c1`
[out] 0.013 µM

[in] Indicate the recorded TGI value for this molecule: `CCO/N=C(/CC)c1ccc(Br)s1`
[out] > 100 µM

[in] Indicate the recorded TGI value for this molecule: CCCCCCCCCCCCCCCC(N)c1ccccc1 (configuration not stated)
[out] 3.28 µM

[in] Indicate the recorded TGI value for this molecule: `COc1ccc(-c2c(C#N)cnc(N)c2-c2nc3cc(C)c(C)cc3[nH]2)cc1`
[out] > 100 µM

[in] Indicate the recorded TGI value for this molecule: ClCCCN1CCCCC1CCl (configuration not stated)
[out] > 100 µM

[in] Indicate the recorded TGI value for this molecule: `CC(C)[Si](OC1=CCC[C@H]2NC(=O)[C@@H](Cc3ccc([N+](=O)[O-])cc3)[C@@]12C)(C(C)C)C(C)C`
[out] 4.22 µM

[in] Indicate the recorded TGI value for this molecule: CC1CC(c2ccc([N+](=O)[O-])cc2)=Nc2ccccc2S1=O (configuration not stated)
[out] 36.8 µM

[in] Indicate the recorded TGI value for this molecule: `Cc1nc2c(s/c(=N\N)n2-c2ccccc2)c(=O)n1C`
[out] > 100 µM

[in] Indicate the recorded TGI value for this molecule: COc1c(OC2OC(CO)C(O)C(O)C2O)cc2c(c1OC)-c1ccc(OC)c(=O)cc1[C@@H](NC(C)=O)CC2 (some centres not stated)
[out] > 100 µM

[in] Indicate the recorded TGI value for this molecule: NCCSc1nc(N)c2ncn(C3OC(CO)C(O)C3O)c2n1 (configuration not stated)
[out] > 100 µM

[in] Indicate the recorded TGI value for this molecule: `CC(=O)Nc1nc(C)c(-c2cc3c(c(S(C)(=O)=O)c2)C(=O)N([C@@H](C)C2CC2)C3)s1`
[out] > 100 µM

[in] Indicate the recorded TGI value for this molecule: CC1OC(n2cnc3c(N)nc(Cl)nc32)C(C)(O)C1O (configuration not stated)
[out] > 25 µM

[in] Indicate the recorded TGI value for this molecule: `C/C(CC(O)(C(F)(F)F)C(F)(F)F)=N/Nc1ccc([N+](=O)[O-])cc1[N+](=O)[O-]`
[out] > 10 µM

[in] Indicate the recorded TGI value for this molecule: Fc1ccc(C(OCCN2CCC3CCC(C2)N3C/C=C/c2cccnc2)c2ccc(F)cc2)cc1 (configuration not stated)
[out] 15.6 µM

[in] Indicate the recorded TGI value for this molecule: `CCOC(=O)C(C(=O)OCC)C(NC(=O)Nc1cc(C(F)(F)F)ccc1OC)(C(F)(F)F)C(F)(F)F`
[out] 85 µM

[in] Indicate the recorded TGI value for this molecule: COc1ccccc1NC1=NCC(C)S1 (configuration not stated)
[out] > 100 µM

[in] Indicate the recorded TGI value for this molecule: `CN1CCN(Cc2ccc(NC(=O)c3[nH]ncc3Nc3cc(OC4CCCC4)ncn3)cc2)CC1`
[out] 10.5 µM

[in] Indicate the recorded TGI value for this molecule: C#CC1(O)CC(c2ccccc2)N(C)C(c2ccccc2)C1 (configuration not stated)
[out] > 100 µM

[in] Indicate the recorded TGI value for this molecule: CC1SC(c2cccc(Cl)c2)N(NC(=O)C(O)c2ccccc2)C1=O (configuration not stated)
[out] > 100 µM

[in] Indicate the recorded TGI value for this molecule: `CCOc1ccccc1NC(=O)C(=O)c1c(O)c2ccc(O)cc2oc1=O`
[out] > 100 µM
